Where do the numbers come from? From paper PMC2929362.

# System: full length human SIRT1 (FL SIRT1) (Homo sapiens, UniProt Q96EB6)
# Sequence (Q96EB6 1-747): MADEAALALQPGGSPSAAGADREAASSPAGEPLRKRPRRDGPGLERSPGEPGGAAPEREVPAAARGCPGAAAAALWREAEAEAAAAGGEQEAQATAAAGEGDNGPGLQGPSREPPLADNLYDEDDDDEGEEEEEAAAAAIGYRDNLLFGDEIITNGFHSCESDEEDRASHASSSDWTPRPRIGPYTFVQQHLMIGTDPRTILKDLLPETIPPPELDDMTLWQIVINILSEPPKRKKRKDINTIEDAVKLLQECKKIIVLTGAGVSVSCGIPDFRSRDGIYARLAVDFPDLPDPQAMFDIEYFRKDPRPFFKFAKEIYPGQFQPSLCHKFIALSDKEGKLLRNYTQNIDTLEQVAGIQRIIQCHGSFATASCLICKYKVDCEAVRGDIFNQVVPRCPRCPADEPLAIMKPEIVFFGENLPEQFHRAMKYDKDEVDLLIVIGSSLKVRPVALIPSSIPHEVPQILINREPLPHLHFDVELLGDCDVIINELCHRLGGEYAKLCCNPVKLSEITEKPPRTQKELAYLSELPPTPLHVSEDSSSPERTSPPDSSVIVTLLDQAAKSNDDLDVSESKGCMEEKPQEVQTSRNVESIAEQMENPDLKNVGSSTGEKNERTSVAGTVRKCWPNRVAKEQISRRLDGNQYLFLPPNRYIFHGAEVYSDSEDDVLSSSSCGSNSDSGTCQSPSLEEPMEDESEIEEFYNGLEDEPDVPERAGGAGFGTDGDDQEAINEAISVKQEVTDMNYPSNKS
Property: IC50 (µM)
The reply should be a number in µM, with the unit left off.

IC50 for "Oc1c(Cl)cc(Cl)c(Cl)c1Cc1c(O)c(Cl)cc(Cl)c1Cl" ?
34

====

# System: Hst2 (Saccharomyces cerevisiae)
# Sequence (P53686 1-294): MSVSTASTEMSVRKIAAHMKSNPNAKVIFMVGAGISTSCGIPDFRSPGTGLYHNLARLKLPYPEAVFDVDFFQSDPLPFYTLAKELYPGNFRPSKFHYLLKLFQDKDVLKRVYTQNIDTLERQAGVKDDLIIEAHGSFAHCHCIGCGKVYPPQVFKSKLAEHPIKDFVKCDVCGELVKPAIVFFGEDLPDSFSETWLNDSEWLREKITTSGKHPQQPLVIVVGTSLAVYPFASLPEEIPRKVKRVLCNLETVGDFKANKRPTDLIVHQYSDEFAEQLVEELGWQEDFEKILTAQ
# Procedure Text: Competition assay
# Format: biochemical
# Assay Setup: Ki, with respect to acetyl-lysine substrate (varied 3-50 μM), NAD+ 160 μM
Property: Ki (µM)
The reply should be a number in µM, with the unit left off.

Provide the documented Ki with Hst2 (Saccharomyces cerevisiae) as the system for "Oc1c(Cl)cc(Cl)c(Cl)c1Cc1c(O)c(Cl)cc(Cl)c1Cl"
2.5

====

# System: Hst2 (Saccharomyces cerevisiae)
# Procedure Text: biochemical
# Assay Setup: Hst2 fluorigenic assay
Property: IC50 (Table 5, scaffold 12 analogs, Hst2)

See these solved cases before continuing.
O=C(O)CCN1C(=O)c2ccc(-c3nc4ccccc4c(=O)o3)cc2C1=O [Compound 47054] ... No inhibition
O=C(O)CCN1C(=O)c2cc(Cl)c(Cl)cc2C1=O [Compound 39008] ... No inhibition
O=C1c2ccccc2C(=O)N1CCBr [Compound 91032] ... No inhibition
Nc1ccc2c(c1)C(=O)N(CCC(=O)O)C2 [Compound 42071] ... No inhibition
C[S+]([O-])CCC(C(=O)O)N1C(=O)c2ccccc2C1=O (stereo not shown) [Compound 00032] ... No inhibition
O=C(O)CCCN1C(=O)c2ccccc2C1=O [Compound 47032] ... No inhibition

Now consider the entry below.
IC50 (Table 5, scaffold 12 analogs, Hst2) for CC(C)C(=O)CCN1C(=O)c2ccccc2C1=O [Compound 04265] ?
No inhibition
